// log10(IC50) collected for human Gal-1 (hGal-1) (Homo sapiens (Human), UniProt P09382)
log10 IC50, µM

Sample records with log10(IC50):
Cc1ccccc1[C@H](S[C@@H]1O[C@H](CO)[C@H](O)[C@H](n2cc(-c3cc(F)c(F)c(F)c3)nn2)[C@H]1O)C(C)(C)O [Example 2.31.102S.] :: 0.84
CO[C@@H]1[C@@H](n2cc(-c3cc(F)c(F)c(F)c3)nn2)[C@@H](O)[C@@H](CO)O[C@H]1SC(c1ccccc1C(F)(F)F)C1(O)CCN(C(=O)NC2CC2)CC1 (stereo partly drawn) :: -0.31
Cc1ccccc1C(S[C@@H]1O[C@H](CO)[C@H](O)[C@H](n2cc(-c3cc(F)c(F)c(F)c3)nn2)[C@H]1O)C1(O)CC(C)C1C (stereo partly drawn) :: 0.73

Entry under review: CCC(O)(CC)[C@H](S[C@@H]1O[C@H](CO)[C@H](O)[C@H](n2cc(-c3cc(F)c(F)c(F)c3)nn2)[C@H]1O)c1conc1C [Example 2.32.120R.] . Reported log10(IC50)?
0.45
